Entry source: patent US20210261512A1

Reported Vd values for the following compounds.
test: PK, intravenous administration; assay type: in vivo; settings: rat, plasma, male Sprague Dawley rats, dose about 1 mg/kg, read-out: Vdss
Dear colleague, please return just the value in L/kg, with no unit written.

Compound | Readout Kind | Quantitative Readout
O=S(=O)(c1nnc(Nc2c3c(cc4c2CCC4)CCC3)[nH]1)N1CCC2(CCCN2)CC1 [Example 268] | Vd | 12.1
CC(C)N1CC(S(=O)(=O)c2nnc(Nc3c4c(cc5c3CCC5)CCC4)[nH]2)C1 [Example 22] | Vd | 1.09
CCN(CC)CCNS(=O)(=O)c1nnc(Nc2c3c(cc4c2CCC4)CCC3)[nH]1 [Example 81] | Vd | 4.61

Task: Determine from records and report Vd for Cn1cc(S(=O)(=O)c2nnc(Nc3c4c(cc5c3CCC5)CCC4)[nH]2)cn1 [Example 159]
Result: 0.38

Task: Determine from records and report Vd for CCN(CC)CCCS(=O)(=O)c1nnc(Nc2c(-c3ccnc(OC)c3)ccc3c2CCC3)[nH]1 [Example 76]
Result: 2.48

Task: Determine from records and report Vd for CN1CCCC1CCS(=O)(=O)c1nnc(Nc2c3c(cc4c2CCC4)CCC3)[nH]1 (stereo not shown) [Example 60]
Result: 3.24

Task: Determine from records and report Vd for O=S(=O)(c1nnc(Nc2c3c(cc4c2CCC4)CCC3)[nH]1)N1CC2(CCN(C3CC3)C2)C1 [Example 245]
Result: 1.63

Task: Determine from records and report Vd for COc1cc(-c2ccc3c(c2Nc2nnc(S(=O)(=O)N4CC5(CCN(C)C5)C4)[nH]2)CCC3)ccn1 [Example 215]
Result: 2.86
